Value source: patent US10696703B2

- Tested on: Staphylococcus aureus (MRSA) ATCC43300
- Procedure details: MIC measurement by CLSI disk method, MRSA ATCC 43300
- Type: cell-based
- Condition notes: at the MIC amount per disk; mean of longest and shortest lengths of area without growth
- Description: The followings were used as test microorganisms: Staphylococcus aureus (MRSA) IID 1677, Staphylococcus aureus (MRSA) ATCC 43300, Enterococcus faecalis (VRE) ATCC 51575, and Enterococcus faecalis ATCC 29212. Measurements were performed in accordance with the disk method as defined by CLSI (Clinical and Laboratory Standards Institute). A cryopreserved strain was applied onto a test-bacterium culture medium, and precultured under predetermined conditions (Table 3). […]
Measured parameter: Inhibition zone (mm)
Could you give me the number in mm? Just the number is fine.

# example entries with known answers
C[C@H]1C/C=C/CC/C=C/CCCCCCCCCCCC[C@H](OP(=O)([O-])OCC[N+](C)(C)C)CC(=O)O1 [Compound D, (3S,16E,20E,23S)-(+)-Eushearilide]; 3.0
C[C@H]1C/C=C/CC/C=C\CCCCCCCCCCCC[C@H](OP(=O)([O-])OCC[N+](C)(C)C)CC(=O)O1 [Compound G, (3S,16Z,20E,23S)-(+)-Eushearilide]; 0.9
C[C@H]1C/C=C/CC/C=C\CCCCCCCCCCCC[C@@H](OP(=O)([O-])OCC[N+](C)(C)C)CC(=O)O1 [Compound H, (3R,16Z,20E,23S)-(−)-Eushearilide]; 2.7
C[C@@H]1C/C=C/CC/C=C/CCCCCCCCCCCC[C@H](OP(=O)([O-])OCC[N+](C)(C)C)CC(=O)O1 [Compound E, (3S,16E,20E,23R)-(+)-Eushearilide]; 3.3

Per the record, C[C@H]1C/C=C/CC/C=C/CCCCCCCCCCCC[C@@H](OP(=O)([O-])OCC[N+](C)(C)C)CC(=O)O1 [Compound F, (3R,16E,20E,23S)-(−)-Eushearilide] has Inhibition zone of 2.4

----------
- System: Staphylococcus aureus (MRSA) IID1677
- Procedure details: MIC measurement by CLSI disk method, MRSA IID 1677
- Type: cell-based
- Condition notes: at the MIC amount per disk; mean of longest and shortest lengths of area without growth
Measured parameter: Inhibition zone (mm)
Output spec: scalar in mm, unitless text.

Check out these entries, answers already filled in.
C[C@@H]1C/C=C/CC/C=C/CCCCCCCCCCCC[C@H](OP(=O)([O-])OCC[N+](C)(C)C)CC(=O)O1 [Compound E, (3S,16E,20E,23R)-(+)-Eushearilide]; 2.2
C[C@H]1C/C=C/CC/C=C\CCCCCCCCCCCC[C@@H](OP(=O)([O-])OCC[N+](C)(C)C)CC(=O)O1 [Compound H, (3R,16Z,20E,23S)-(−)-Eushearilide]; 3.0
C[C@H]1C/C=C/CC/C=C/CCCCCCCCCCCC[C@H](OP(=O)([O-])OCC[N+](C)(C)C)CC(=O)O1 [Compound D, (3S,16E,20E,23S)-(+)-Eushearilide]; 1.4
C[C@H]1C/C=C/CC/C=C/CCCCCCCCCCCC[C@@H](OP(=O)([O-])OCC[N+](C)(C)C)CC(=O)O1 [Compound F, (3R,16E,20E,23S)-(−)-Eushearilide]; 3.1

Below: the item to evaluate.
For record C[C@H]1C/C=C/CC/C=C\CCCCCCCCCCCC[C@H](OP(=O)([O-])OCC[N+](C)(C)C)CC(=O)O1 [Compound G, (3S,16Z,20E,23S)-(+)-Eushearilide] the listed Inhibition zone is 2.3
